Measured values drawn from ChEMBL document CHEMBL1157835 for this set.

System: A549
Protocol summary: Cytotoxicity against human A549 cells by MTT assay
Type: functional, cell-based

| Compound | Target | IC50 |
| --- | --- | --- |
| CCCCCCCC[C@@](C)(O)CCc1oc(=O)c(C)c(O)c1C | A549 | > 31 µM |
| CCCCCCCC[C@](C)(O)CCc1oc(=O)c(C)c(O)c1C | A549 | > 31 µM |
| CCCCCCCCC(C)(O)CCc1oc(=O)c(C)c(O)c1C (racemic) | A549 | > 31 µM |
| CCCCCCCCC(C)(O)CCc1oc(C)c(C)c(=O)c1C (racemic) | A549 | > 31 µM |
| COc1oc(CC(O)CCCCCCc2ccccc2)c(C)c(=O)c1C (stereo not given) | A549 | > 27 µM |

----------
IC50 for assorted compounds
Protocol summary: Inhibition of mitochondrial complex 1 in human MCF7 cells assessed as concentration required to obtain half maximal lactate production after 3 hrs by spectrophotometry
Type: cell-based
Condition info: MCF7, 3 h

| Compound | Modifier | IC50 / nM |
| --- | --- | --- |
| CCCCCCCCC(C)(O)CCc1oc(C)c(C)c(=O)c1C (racemic) | = | 940 |
| COc1oc(CC(O)CCCCCOc2ccc(-c3ccccc3)cc2)c(C)c(=O)c1C (stereo not drawn) | = | 340 |
| CCCCC(O)Cc1oc(OC)c(C)c(=O)c1C (stereo not drawn) | > | 20000 |

----------
Protocol summary: Inhibition of NADH-ubiquinone oxidoreductase from beef heart submitochondrial particles by spectrophotometry
Design: species or system Bos taurus
IC50 for assorted molecules

| Molecule | Modifier | IC50 (nM) |
| --- | --- | --- |
| CCCCC(O)Cc1oc(OC)c(C)c(=O)c1C (stereo unspecified) | > | 25000 |
| CCCCCCCC[C@](C)(O)CCc1oc(=O)c(C)c(O)c1C | = | 13300 |
| CCCCCCCC[C@@](C)(O)CCc1oc(=O)c(C)c(O)c1C | = | 19000 |
| CCCCCCCCC(C)(O)CCc1oc(OC)c(C)c(=O)c1C (racemic) | = | 151 |
| COc1oc(CC(O)CCCCCOc2ccccc2)c(C)c(=O)c1C (stereo unspecified) | = | 595 |
| CCCCCCCC[C@@](C)(O)CCc1oc(C)c(C)c(=O)c1C | = | 145 |
| CCCCCCCCC(C)(O)CCc1oc(C)c(C)c(=O)c1C (racemic) | = | 180 |
| COc1oc(CC(O)CCCCCOc2ccc(-c3ccccc3)cc2)c(C)c(=O)c1C (stereo unspecified) | = | 102 |
| COc1oc(CC(O)CCCCCCc2ccccc2)c(C)c(=O)c1C (stereo unspecified) | = | 257 |
| CCCCCCCC[C@@](C)(O)CCc1oc(OC)c(C)c(=O)c1C | = | 133 |
| CCCCCCCCC(C)(O)CCc1[nH]c(=O)c(C)c(O)c1C (racemic) | = | 1250 |
